Test system: PRP4;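 also: KINOMEscan kinase panel screen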
Conditions: concentration: 1 μM, replicates: in singlicate; n = 1
molecules and their reported %Inh
Give the number; % is assumed, so skip it.

# Molecule, System, Scale unit, %Inh
rows = [
    ("CC(=O)Nc1nc2cnc(Nc3cc(NC(=O)c4cccc(C5(C#N)CC5)c4Cl)ccc3C)nc2s1", "PRP4", "%", 6),
    ("CN1CCN(CCCNc2nccc(-c3c(-c4ccc(F)cc4)nn4cc(C(F)(F)F)ccc34)n2)CC1 [GW621581]", "PRP4", "%", 25),
    ("CN(c1ccc(NC(=O)Nc2cc(C(F)(F)F)ccc2F)cc1)c1ccnc(Nc2ccc(S(N)(=O)=O)cc2)n1 [GW809893]", "PRP4", "%", 14),
]

// next entry
# %Inh (molecule: CN(C)Cc1ccc(-c2ccc3c(Nc4ccc(Oc5ccccn5)cc4)ccnc3c2)o1 [GW567148] ) is 4
